Biological target: CDK5/p35NCK (Homo sapiens)
Construct: ICE Bioscience Inc. (assay service)
Sequence (Q00535 whole entry, species assumed): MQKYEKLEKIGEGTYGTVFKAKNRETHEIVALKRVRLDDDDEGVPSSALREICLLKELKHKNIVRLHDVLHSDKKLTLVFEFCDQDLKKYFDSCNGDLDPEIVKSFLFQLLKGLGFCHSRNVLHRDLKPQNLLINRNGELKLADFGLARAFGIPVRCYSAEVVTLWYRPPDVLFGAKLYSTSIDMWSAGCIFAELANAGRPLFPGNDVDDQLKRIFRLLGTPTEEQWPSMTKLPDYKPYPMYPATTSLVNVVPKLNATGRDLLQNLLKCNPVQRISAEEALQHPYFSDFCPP
Sequence (Q15078 whole entry partner, species assumed): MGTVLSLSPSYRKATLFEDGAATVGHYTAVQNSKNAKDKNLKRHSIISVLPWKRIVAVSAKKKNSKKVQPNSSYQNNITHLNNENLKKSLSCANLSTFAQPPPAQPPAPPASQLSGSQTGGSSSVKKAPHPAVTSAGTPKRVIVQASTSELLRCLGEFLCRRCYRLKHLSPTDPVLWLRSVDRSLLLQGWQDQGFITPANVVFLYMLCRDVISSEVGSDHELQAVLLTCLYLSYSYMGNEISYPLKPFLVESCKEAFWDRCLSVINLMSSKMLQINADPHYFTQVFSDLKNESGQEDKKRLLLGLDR
Test: CDK family panel, ADP-Glo
Type: biochemical
Quantity measured: IC50

In plain terms, C=CC(=O)Nc1cc(N(C(=O)NCc2ccccc2)[C@H]2CC[C@H](Nc3ccc(C#N)cn3)CC2)ccc1N1CCC(N(C)C)CC1 [YJZ5118] has a documented IC50 of > 10000 nM

---

Experiment: Pharmacokinetics study in mice
Format: in vivo, ICR mice
Conditions: both sexes, ICR, mouse, plasma, intravenous, i.v. 2.5 mg/kg (Table S5, intraperitoneal study)
Quantity measured: half-life (h)
Give the number; h is assumed, so skip it.

// C=CC(=O)Nc1cc(N(C(=O)NCc2ccccc2)[C@H]2CC[C@H](Nc3ccc(C#N)cn3)CC2)ccc1N1CCC(N(C)C)CC1 : half-life value = 1.21
